Numbers sourced from paper PMC7439407.

biological target: arginine repressor ArgR; experiment: SPR
measurement kind: Kd (nM)
One number for each entry, in nM.

Record O=c1oc2ccccc2c(O)c1C(c1ccc(Cl)c(Cl)c1)c1c(O)c2ccccc2oc1=O . Reported Kd: 82
